Test system: HCT-15 colon
Experiment: NCI tumour cell line growth inhibition, 48 h
readout name: TGI

Let me check: c1ccc(CNc2ncnc3n[nH]nc23)cc1 , system HCT-15 colon, measured TGI is > 100 µM

Let me check: c1ccc(-c2[nH]c(-c3ccccc3)c(-c3cnccn3)c2-c2cnccn2)cc1 , system HCT-15 colon, measured TGI is > 100 µM

Let me check: O[C@H](CN1CC1)[C@@H](O)CN1CC1 , system HCT-15 colon, measured TGI is 88.9 µM

Let me check: C[C@@H](c1ccccc1)N(CC#N)C1CCC[C@H]1O (some centres not stated) , system HCT-15 colon, measured TGI is > 100 µM

Let me check: O=C(c1ccccc1)c1ccccc1C(=O)c1ccccc1 , system HCT-15 colon, measured TGI is > 100 µM

Hi, could you look up TGI for each item in my list?
1. c1cc2ccc1CNCCN1CCNCc3ccc(cc3)Oc3ccc(cc3)CNCCN(CCNCc3ccc(cc3)O2)CCNCc2ccc(cc2)Oc2ccc(cc2)CNCC1
2. O=C1OC2C=CC1C1(CCOC1=O)C2 (configuration not stated)
3. N#Cc1c(NCc2ccccc2)nc(NCc2ccccc2)c(C#N)c1-c1cccc(O)c1
4. CN(C)C=Nc1nncc2n[nH]nc12
5. N#Cc1c(-c2ccc(Cl)cc2)cc(-c2nc3ccccc3[nH]2)nc1N
6. CC1(C)N=C(N)N=C(N)N1c1ccc(OCCCCNC(=O)c2ccc(S(=O)(=O)F)cc2)c(Cl)c1
7. COc1cccc2c1[C@]1(O)C(O)CCCC21 (some centres not stated)
8. O=c1[nH]cnc2nc(-c3ccc(N(CCCl)CCCl)cc3)[nH]c12

1: 20.1 µM; 2: > 100 µM; 3: 33.7 µM; 4: > 100 µM; 5: 36.3 µM; 6: > 100 µM; 7: > 100 µM; 8: > 100 µM

Hi, could you look up TGI for each item in my list?
1. CCCCN(CCCC)C(=O)C(=O)CC(=O)/C=C/c1ccccc1
2. CS(=O)(=O)Nc1cc(-c2ccc3ncnc(Nc4cccc(Cl)c4F)c3c2)cnc1Cl

1: > 100 µM; 2: 14.5 µM

Hi, could you look up TGI for each item in my list?
1. CNC(C)Cc1ccc(O)cc1 (configuration not stated)
2. O=c1/c(=C/c2ccc(-c3ccc(Cl)cc3Cl)o2)sc2n1[C@@H](c1ccc3c(c1)OCO3)C=C(c1cc(F)c(Cl)cc1Cl)N=2
3. O=c1oc2ccccc2c(O)c1Cc1cccc(Cc2c(O)c3ccccc3oc2=O)c1
4. CC1(C)CC(=O)C(=CN2C(=O)CNC2=S)C(=O)C1
5. CN(C)c1ccc(N=C(C#N)c2nc(N)nc(N3CCN(c4ccccc4)CC3)n2)cc1
6. CCOC(=O)NC(=O)c1cn(C2OC(CO)C(O)C2O)c(=O)[nH]c1=O (configuration not stated)
7. CCOC(=O)N1C(=S)C(C(=O)OC)(C(=O)OC)N=C1C

1. > 100 µM
2. > 100 µM
3. > 100 µM
4. > 100 µM
5. > 50 µM
6. > 100 µM
7. > 100 µM
